The measured values listed here are drawn from the Immune Epitope Database (IEDB).

Target: HLA-A*24:03
Experiment: IEDB peptide-MHC binding, purified MHC/competitive/fluorescence; filed as Kd, often an IC50 or EC50 that approximates it; bounds were set here for any values at or beyond the usual limits of such assays
Conditions: source organism: Giardia lamblia ATCC 50803
readout_name: Kd

Query string: Given the entry ALGGSCHTT , what Kd was observed with HLA-A*24:03?
Result string: ≥ 20 µM

###

Target: HLA-B*40:01
Assay: IEDB peptide-MHC binding, purified MHC/competitive/radioactivity; filed as Kd, often an IC50 or EC50 that approximates it; bounds were set here for any values at or beyond the usual limits of such assays
Settings: source organism: Mammarenavirus juninense
readout_name: pKd
Field pKd (float): negative decimal logarithm of the concentration in molar.

Query string: Name the reported pKd value associated with the sequence SDFLISEML
Result string: 4.94

###

Target: HLA-A*02:06
Test: IEDB peptide-MHC binding, purified MHC/competitive/radioactivity; filed as Kd, often an IC50 or EC50 that approximates it; bounds were set here for any values at or beyond the usual limits of such assays
Conditions: source organism: Vaccinia virus WR
pKd: −log10 of the molar value.
Class y: pKd at least 6. Class n: pKd below 6.

MVDVSMMSM    y
TIDNIVTSL    n
PIPMSRLFM    n
YIIRVTTEL    y
LAEYIRHRNT    n
DIDLLFNEKL    n
GIFVDTMSI    n
NMKPNFWSRI    n

Consider the record given below.
Query string: Evaluate IPFIAYFVLM : pKd at minimum 6?
Result string: n

###

Molecular target: HLA-A*03:01
Test: IEDB peptide-MHC binding, purified MHC/competitive/fluorescence; filed as Kd, often an IC50 or EC50 that approximates it; bounds were set here for any values at or beyond the usual limits of such assays
Conditions: source organism: Escherichia coli B7A
readout_name: Kd (nM)
Express the result in nM but write the number alone.

Query string: Name the reported Kd value associated with the sequence LMMTATGEY
Result string: 1780

###

Molecular target: HLA-A*31:01
Experiment: IEDB peptide-MHC binding, purified MHC/competitive/fluorescence; filed as Kd, often an IC50 or EC50 that approximates it; bounds were set here for any values at or beyond the usual limits of such assays
Settings: source organism: Escherichia coli O157:H7 str. EDL933
readout_name: Kd (nM)
Express the result in nM but write the number alone.

Query string: Name the reported Kd value associated with the sequence RMMGVKYLM
Result string: 2.1

###

Molecular target: HLA-B*08:01
Assay: IEDB peptide-MHC binding, purified MHC/competitive/radioactivity; filed as Kd, often an IC50 or EC50 that approximates it; bounds were set here for any values at or beyond the usual limits of such assays
Conditions: source organism: Dengue virus 3 Singapore/8120/1995
readout_name: pKd
Field pKd (float): negative decimal logarithm of the concentration in molar.

Query string: Given the entry LLVTHYAII , what pKd was observed with HLA-B*08:01?
Result string: 6.18

###

Target: HLA-A*68:02
Assay: IEDB peptide-MHC binding, purified MHC/competitive/radioactivity; filed as Kd, often an IC50 or EC50 that approximates it; bounds were set here for any values at or beyond the usual limits of such assays
Conditions: source organism: Hepatitis C virus (isolate 1)
readout_name: pKd
Field pKd (float): negative decimal logarithm of the concentration in molar.

Query string: Name the reported pKd value associated with the sequence CINGVCWTV
Result string: 5.42

###

Target: HLA-B*44:03
Experiment: IEDB peptide-MHC binding, purified MHC/competitive/radioactivity; filed as Kd, often an IC50 or EC50 that approximates it; bounds were set here for any values at or beyond the usual limits of such assays
Conditions: source organism: Dengue virus 4 Philippines/H241/1956
Each entry below carries its reported Kd.
Express the result in nM but write the number alone.

AEIQPQWIA    1230

Now look at this entry.
Query string: Name the reported Kd value associated with the sequence SEAVNDSRFW
Result string: 41.4

###

Molecular target: HLA-A*24:03
Test: IEDB peptide-MHC binding, purified MHC/direct/fluorescence; filed as Kd, often an IC50 or EC50 that approximates it; bounds were set here for any values at or beyond the usual limits of such assays
Conditions: source organism: Haemophilus influenzae
readout_name: Kd

Query string: Name the reported Kd value associated with the sequence LAEQFSGEY
Result string: ≥ 20 µM

###

Target: HLA-B*54:01
Assay: IEDB peptide-MHC binding, purified MHC/competitive/radioactivity; filed as Kd, often an IC50 or EC50 that approximates it; bounds were set here for any values at or beyond the usual limits of such assays
Details: source organism: Hepacivirus hominis
readout_name: pKd
Field pKd (float): negative decimal logarithm of the concentration in molar.

Query string: Name the reported pKd value associated with the sequence RPALVFDIT
Result string: 7.02

###

Target: HLA-B*27:05
Assay: IEDB peptide-MHC binding, purified MHC/direct/fluorescence; filed as Kd, often an IC50 or EC50 that approximates it; bounds were set here for any values at or beyond the usual limits of such assays
Conditions: source organism: Burkholderia mallei
pKd: −log10 of the molar value.
readout_name: pKd

Query string: Name the reported pKd value associated with the sequence FEIGNGDAG
Result string: ≤ 4.70

###

Molecular target: HLA-B*15:01
Assay: IEDB peptide-MHC binding, purified MHC/direct/fluorescence; filed as Kd, often an IC50 or EC50 that approximates it; bounds were set here for any values at or beyond the usual limits of such assays
Settings: source organism: Camelpox virus CMS
pKd: −log10 of the molar value.
readout_name: pKd

Query string: Given the entry MPAYIRNTL , what pKd was observed with HLA-B*15:01?
Result string: ≤ 4.70

###

Target: HLA-A*01:01
Assay: IEDB peptide-MHC binding, purified MHC/direct/fluorescence; filed as Kd, often an IC50 or EC50 that approximates it; bounds were set here for any values at or beyond the usual limits of such assays
Conditions: source organism: Mammarenavirus lassaense
readout_name: pKd
Field pKd (float): negative decimal logarithm of the concentration in molar.

Query string: Name the reported pKd value associated with the sequence ALTDLGLIY
Result string: 7.46

###

Molecular target: HLA-A*68:01
Assay: IEDB peptide-MHC binding, purified MHC/competitive/radioactivity; filed as Kd, often an IC50 or EC50 that approximates it; bounds were set here for any values at or beyond the usual limits of such assays
Conditions: source organism: Dengue virus 1 Brazil/97-11/1997
readout_name: Kd (nM)
Express the result in nM but write the number alone.

KSAAIDGEYR    134
TIFAGHLKCR    16.9

Now look at this entry.
Query string: Name the reported Kd value associated with the sequence KTFDTEYQK
Result string: 4.6

###

Target: HLA-A*03:01
Experiment: IEDB peptide-MHC binding, purified MHC/direct/fluorescence; filed as Kd, often an IC50 or EC50 that approximates it; bounds were set here for any values at or beyond the usual limits of such assays
Details: source organism: Corynebacterium glutamicum
readout_name: Kd

Query string: Name the reported Kd value associated with the sequence ATQPVHWFL
Result string: ≥ 20 µM

###

Target: HLA-A*31:01
Assay: IEDB peptide-MHC binding, purified MHC/direct/fluorescence; filed as Kd, often an IC50 or EC50 that approximates it; bounds were set here for any values at or beyond the usual limits of such assays
Conditions: source organism: Camelpox virus M-96
readout_name: Kd

WENGFKVVL    ≥ 20 µM

Query string: Name the reported Kd value associated with the sequence LLRDKDGVY
Result string: ≥ 20 µM

###

Target: HLA-B*27:05
Experiment: IEDB peptide-MHC binding, purified MHC/direct/fluorescence; filed as Kd, often an IC50 or EC50 that approximates it; bounds were set here for any values at or beyond the usual limits of such assays
Conditions: source organism: Coxiella burnetii
pKd: −log10 of the molar value.
readout_name: pKd

Query string: Name the reported pKd value associated with the sequence YMHGSIHEV
Result string: ≤ 4.70

###

Each entry below carries its reported log10 of Kd.
Molecular target: HLA-B*45:01
Assay: IEDB peptide-MHC binding, purified MHC/competitive/radioactivity; filed as Kd, often an IC50 or EC50 that approximates it; bounds were set here for any values at or beyond the usual limits of such assays
Details: source organism: SARS coronavirus Tor2
Scale type: logarithmic (base 10). Underlying Kd unit: µM.

AEIVDTVSAL    -0.54
IDYVPLKSAT    0.31
KELSPRWYF    0.78
VETFYPKLQA    0.41
HEDLMAAYV    0.23
EEHFVETVSL    -0.94

Query string: Name the reported log10 of Kd value associated with the sequence EETFKLSYGI
Result string: 0.40

Query string: Name the reported log10 of Kd value associated with the sequence NELSLALGL
Result string: 0.77

Query string: Name the reported log10 of Kd value associated with the sequence SELVIGAVI
Result string: -0.81

###

Biological target: HLA-B*40:01
Assay: IEDB peptide-MHC binding, purified MHC/competitive/radioactivity; filed as Kd, often an IC50 or EC50 that approximates it; bounds were set here for any values at or beyond the usual limits of such assays
Settings: source organism: Dengue virus 4 Philippines/H241/1956
readout_name: Kd (µM)
Express the result in µM but write the number alone.

Query string: Name the reported Kd value associated with the sequence CESCVYNMM
Result string: 0.201
